Tested on: 565726-208-R1-J5-PDC complex spheroids, growth inhibition
Assay: Anticancer human tumor 565726-208-R1-J5-PDC patient-derived pancreatic adenocarcinoma cell line growth inhibition [RAS]
Conditions: second compound 0.01 µM; first compound 10 µM; stronger effect = lower value
Recorded viability, T/C for the following molecules
Report the value in % with no unit label.

C[C@@H](NC(=O)c1ncnc(N)c1Cl)c1ncc(C(=O)Nc2cc(C(F)(F)F)c(Cl)cn2)s1 + C=CC(=O)N1CCN(c2nc(OCC3CCCN3C)nc3c(F)c(-c4nc(N)cc(C)c4C(F)(F)F)c(Cl)cc23)C(C)C1 ... 67.8
CC(=O)OC12COC1CC(O)C1(C)C(=O)C(O)C3=C(C)C(OC(=O)C(O)C(NC(=O)OC(C)(C)C)c4ccccc4)CC(O)(C(OC(=O)c4ccccc4)C21)C3(C)C (stereo not drawn) + C=CC(=O)N1CCN(c2nc(OCC3CCCN3C)nc3c(F)c(-c4nc(N)cc(C)c4C(F)(F)F)c(Cl)cc23)C(C)C1 ... 47.7
Cc1nc(N2CCC3(CC2)COC(C)C3N)c(CO)nc1Sc1ccnc(N)c1Cl (stereo not drawn) + C=CC(=O)N1CCN(c2nc(OCC3CCCN3C)nc3c(F)c(-c4nc(N)cc(C)c4C(F)(F)F)c(Cl)cc23)C(C)C1 ... 148
CC(Nc1ccc2c(c1)OCCn1cc(N3C(=O)OCC3C(F)F)nc1-2)C(N)=O (stereo not drawn) + C=CC(=O)N1CCN(c2nc(OCC3CCCN3C)nc3c(F)c(-c4nc(N)cc(C)c4C(F)(F)F)c(Cl)cc23)C(C)C1 ... 89

Input: Reported viability, T/C, molecule CC1(O)CCCC1n1c(=O)c(C(F)F)cc2cnc(NC3CCN(S(C)(=O)=O)CC3)nc21 (stereo not drawn) + C=CC(=O)N1CCN(c2nc(OCC3CCCN3C)nc3c(F)c(-c4nc(N)cc(C)c4C(F)(F)F)c(Cl)cc23)C(C)C1 : ____
Output: 8.22

Input: Reported viability, T/C, molecule CC(C)NCC(C(=O)N1CCN(c2ncnc3c2C(C)CC3O)CC1)c1ccc(Cl)cc1 (stereo not drawn) + C=CC(=O)N1CCN(c2nc(OCC3CCCN3C)nc3c(F)c(-c4nc(N)cc(C)c4C(F)(F)F)c(Cl)cc23)C(C)C1 : ____
Output: 127

Input: Reported viability, T/C, molecule NC1c2ccccc2OC12CCN(c1cnc3c(N4CCCc5ncccc54)n[nH]c3n1)CC2 (stereo not drawn) + C=CC(=O)N1CCN(c2nc(OCC3CCCN3C)nc3c(F)c(-c4nc(N)cc(C)c4C(F)(F)F)c(Cl)cc23)C(C)C1 : ____
Output: 102

Input: Reported viability, T/C, molecule CCC(CC)c1cc(NC2CCC(N)C2)n2nccc2n1 (stereo not drawn) + C=CC(=O)N1CCN(c2nc(OCC3CCCN3C)nc3c(F)c(-c4nc(N)cc(C)c4C(F)(F)F)c(Cl)cc23)C(C)C1 : ____
Output: 1.95

* * *

Recorded IC50 for the following molecules
Tested on: 565726-208-R1-J5-PDC complex spheroids, growth inhibition
Assay: Anticancer human tumor 565726-208-R1-J5-PDC cell line growth inhibition [RAS];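 further: spheroids exposed to compounds for seven days before readout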
Settings: curve of first compound; second compound 0.0949 µM
Text: RAS pathway inhibitors in Combinations in Complex Spheroids A high-throughput screen of multi-cell type tumor spheroids was designed to identify active combinations of RAS pathway inhibitors and targeted small molecules. Complex spheroids include a stromal component modeled by human endothelial cells (HUVEC) and fibroblasts modeled by human mesenchymal stem cells (MSCs). […] Compounds. […] If the clinical Cmax for an agent had not been determined, the highest concentration tested was 10 microM. […]

CC(C)n1nc(-c2ccc3oc(N)nc3c2)c2c(N)ncnc21 + CCn1c(-c2cc(N3CCN(C)CC3)cnc2C(C)OC)c2c3cc(ccc31)-c1csc(n1)CC(NC(=O)C1CC1C)C(=O)N1CCCC(N1)C(=O)OCC(C)(C)C2 ... < 0.316 nM
Nc1ccn(C2OC(CO)C(O)C2(F)F)c(=O)n1 (stereo not drawn) + CCn1c(-c2cccnc2C(C)OC)c2c3cc(ccc31)N1CCOC(CC(NC(=O)C(C(C)C)N(C)C(=O)C3(F)CCN(C(=O)C#CC(C)(C)N(C)C)CC3)C(=O)N3CCCC(N3)C(=O)OCC(C)(C)C2)C1 ... 77.2 nM
C=CC(=O)N1CCN(c2nc(OCC3CCCN3C)nc3c(F)c(-c4nc(N)cc(C)c4C(F)(F)F)c(Cl)cc23)C(C)C1 (stereo not drawn) + CCn1c(-c2cc(N3CCN(C)CC3)cnc2C(C)OC)c2c3cc(ccc31)-c1csc(n1)CC(NC(=O)C1CC1C)C(=O)N1CCCC(N1)C(=O)OCC(C)(C)C2 ... < 3.16 nM
NC1c2ccccc2OC12CCN(c1cnc3c(N4CCCc5ncccc54)n[nH]c3n1)CC2 (stereo not drawn) + CCn1c(-c2cc(N3CCN(C)CC3)cnc2C(C)OC)c2c3cc(ccc31)-c1csc(n1)CC(NC(=O)C1CC1C)C(=O)N1CCCC(N1)C(=O)OCC(C)(C)C2 ... < 31.6 nM
Cc1nc(N2CCC3(CC2)COC(C)C3N)c(CO)nc1Sc1ccnc(N)c1Cl (stereo not drawn) + CCn1c(-c2cc(N3CCN(C)CC3)cnc2C(C)OC)c2c3cc(ccc31)-c1csc(n1)CC(NC(=O)C1CC1C)C(=O)N1CCCC(N1)C(=O)OCC(C)(C)C2 ... < 31.6 nM

Input: Reported IC50, molecule CC1(O)CCCC1n1c(=O)c(C(F)F)cc2cnc(NC3CCN(S(C)(=O)=O)CC3)nc21 (stereo not drawn) + CCn1c(-c2cc(N3CCN(C)CC3)cnc2C(C)OC)c2c3cc(ccc31)-c1csc(n1)CC(NC(=O)C1CC1C)C(=O)N1CCCC(N1)C(=O)OCC(C)(C)C2 : ____
Output: < 31.6 nM

Input: Reported IC50, molecule CCc1c2c(nc3ccc(O)cc13)-c1cc3c(c(=O)n1C2)COC(=O)[C@]3(O)CC + CCn1c(-c2cccnc2C(C)OC)c2c3cc(ccc31)N1CCOC(CC(NC(=O)C(C(C)C)N(C)C(=O)C3(F)CCN(C(=O)C#CC(C)(C)N(C)C)CC3)C(=O)N3CCCC(N3)C(=O)OCC(C)(C)C2)C1 : ____
Output: 1.98 nM

Input: Reported IC50, molecule CCC(CC)c1cc(NC2CCC(N)C2)n2nccc2n1 (stereo not drawn) + CCn1c(-c2cc(N3CCN(C)CC3)cnc2C(C)OC)c2c3cc(ccc31)-c1csc(n1)CC(NC(=O)C1CC1C)C(=O)N1CCCC(N1)C(=O)OCC(C)(C)C2 : ____
Output: < 31.6 nM

* * *

Test system: 565726-208-R1-J5-PDC complex spheroids, growth inhibition
Experiment: Anticancer human tumor 565726-208-R1-J5-PDC cell line growth inhibition [RAS]; active = viability on the fitted dose curve at most 10% of control; inactive = the rest;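 further: spheroids exposed to compounds for seven days before readout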
Conditions: second compound 0.03 µM; first compound 3.16 µM
The categories you may choose from are true for active, false for inactive

Some solved cases for reference:
CCC(CC)c1cc(NC2CCC(N)C2)n2nccc2n1 (centres undefined) + CCn1c(-c2cccnc2C(C)OC)c2c3cc(ccc31)N1CCOC(CC(NC(=O)C(C(C)C)N(C)C(=O)C3(F)CCN(C(=O)C#CC(C)(C)N(C)C)CC3)C(=O)N3CCCC(N3)C(=O)OCC(C)(C)C2)C1 ... true
CC(C)NCC(C(=O)N1CCN(c2ncnc3c2C(C)CC3O)CC1)c1ccc(Cl)cc1 (centres undefined) + CCn1c(-c2cccnc2C(C)OC)c2c3cc(ccc31)N1CCOC(CC(NC(=O)C(C(C)C)N(C)C(=O)C3(F)CCN(C(=O)C#CC(C)(C)N(C)C)CC3)C(=O)N3CCCC(N3)C(=O)OCC(C)(C)C2)C1 ... false
CC(=O)OC12COC1CC(O)C1(C)C(=O)C(O)C3=C(C)C(OC(=O)C(O)C(NC(=O)OC(C)(C)C)c4ccccc4)CC(O)(C(OC(=O)c4ccccc4)C21)C3(C)C (centres undefined) + CCn1c(-c2cc(N3CCN(C)CC3)cnc2C(C)OC)c2c3cc(ccc31)-c1csc(n1)CC(NC(=O)C1CC1C)C(=O)N1CCCC(N1)C(=O)OCC(C)(C)C2 ... false

For the next question, use this compound.
Input: Identify the outcome logged in this assay for the compound shown: CC(C)NCC(C(=O)N1CCN(c2ncnc3c2C(C)CC3O)CC1)c1ccc(Cl)cc1 (centres undefined) + CCn1c(-c2cc(N3CCN(C)CC3)cnc2C(C)OC)c2c3cc(ccc31)-c1csc(n1)CC(NC(=O)C1CC1C)C(=O)N1CCCC(N1)C(=O)OCC(C)(C)C2
Output: false

* * *

Recorded viability, T/C for the following molecules
Test system: 565726-208-R1-J5-PDC complex spheroids, growth inhibition
Experiment: Anticancer human tumor 565726-208-R1-J5-PDC cell line growth inhibition [RAS];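 further: spheroids exposed to compounds for seven days before readout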;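 on viability, T/C: 100% = DMSO vehicle control viability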
Conditions: second compound 0.0316 µM; first compound 0.0949 µM; stronger effect = lower value

CCc1c2c(nc3ccc(O)cc13)-c1cc3c(c(=O)n1C2)COC(=O)[C@]3(O)CC + C=CC(=O)N1CCN(c2nc(OCC3CCCN3C)nc3c(F)c(-c4nc(N)cc(C)c4C(F)(F)F)c(Cl)cc23)C(C)C1 ... 13.2%
CCc1c2c(nc3ccc(O)cc13)-c1cc3c(c(=O)n1C2)COC(=O)[C@]3(O)CC + C#Cc1c(F)ccc2cc(O)cc(-c3ncc4c(N5CC6CCC(C5)N6)nc(OCC56CCCN5CC(F)C6)nc4c3F)c12 ... 12.5%
CC1(C)CCC(Nc2ncc(C(F)(F)F)c(-c3c[nH]c4c(P(C)(C)=O)c(C#N)ccc34)n2)CN1 (centres undefined) + C#Cc1c(F)ccc2cc(O)cc(-c3ncc4c(N5CC6CCC(C5)N6)nc(OCC56CCCN5CC(F)C6)nc4c3F)c12 ... 35.6%

Input: Reported viability, T/C, molecule CC1(C)CCC(Nc2ncc(C(F)(F)F)c(-c3c[nH]c4c(P(C)(C)=O)c(C#N)ccc34)n2)CN1 (centres undefined) + C=CC(=O)N1CCN(c2nc(OCC3CCCN3C)nc3c(F)c(-c4nc(N)cc(C)c4C(F)(F)F)c(Cl)cc23)C(C)C1 : ____
Output: 39.7%
